# melting point per entry

Illustrative cases are given below, each with its answer.
CC(C)(C)c1cc2c(c(-c3ccc[nH]c3=O)c1)OC(O)C(c1ccc(NS(C)(=O)=O)cc1)C2 (centres unmarked) [Compound I-18] = 228 to 230 °C
CC(C)(C)c1cc(-c2ccc[nH]c2=O)c2[nH]c(=O)c(-c3cccc(NS(C)(=O)=O)c3)cc2c1 [Compound I-10] = 233 to 235 °C
CC(C)(C)c1cc(-c2ccc[nH]c2=O)c2oc(=O)c(-c3ccc(N)cc3)cc2c1 [Compound I-3] = > 300 °C
Cn1c(=O)c(-c2ccc(S(N)(=O)=O)cc2)cc2cc(C(C)(C)C)cc(-c3ccc[nH]c3=O)c21 [Compound I-12] = > 300 °C
CC(C)(C)c1cc(-c2ccc[nH]c2=O)c2oc(=O)ccc2c1 [Compound I-1] = > 300 °C

Task item: Data request, read-out melting point, for CC(C)(C)c1cc(-c2ccc[nH]c2=O)c2[nH]c(=O)c(-c3cccc(C(N)=O)c3)cc2c1 [Compound I-13]
Reply: 255 to 257 °C

Task item: For CC(C)(C)c1cc(-c2ccc[nH]c2=O)c2[nH]c(=O)c(-c3ccccc3)cc2c1 [Compound I-4] then?
Reply: 200 to 202 °C

Task item: And the next one, CC(C)(C)c1cc(-c2ccc[nH]c2=O)c2[nH]c(=O)c(-c3ccc(NS(C)(=O)=O)cc3)cc2c1 [Compound I-9] ?
Reply: > 300 °C

----------
experiment.description: in vitro
condition.summary: human
measure.name: CC50 at 3 days (µM)
Give a bare numeral; the unit µM is implied.

Task item: Give its CC50 at 3 days value. Item: `CC(C)(C)c1cc(-c2ccc[nH]c2=O)c2oc(=O)c(-c3ccc(NS(C)(=O)=O)cc3)cc2c1`
Reply: 95.1

----------
Reported pIC50 values for a set of molecules
measured.target: HCV polymerase (NS5B570n-Con1) (Hepatitis C virus genotype 1b, UniProt Q9WMX2)
Construct: contains a 21 amino acid deletion at the C-terminus relative to the full-length HCV polymerase; 6-histidine (N)
experiment.description: HCV NS5B RNA polymerase activity (incorporation of radiolabeled nucleotide into RNA)
Note on units: pIC50 is unitless, being -log10 of a concentration expressed in mol/L.

Worked examples follow.
CC(C)(C)c1cc(-c2ccc[nH]c2=O)c2oc(=O)c(-c3ccc(NS(C)(=O)=O)cc3)cc2c1 = 8.30
CC(C)(C)c1cc(-c2ccc[nH]c2=O)c2[nH]c(=O)c(-c3ccc(NS(C)(=O)=O)cc3)cc2c1 = 8.30
CC(C)(C)c1cc(-c2ccc[nH]c2=O)c2[nH]c(=O)c(-c3cccc(C(N)=O)c3)cc2c1 = 7.44
CC(C)(C)c1cc2c(c(-c3ccc[nH]c3=O)c1)OC(O)C(c1ccc(NS(C)(=O)=O)cc1)C2 (stereo not drawn) = 8.15
CC(C)(C)c1cc(-c2ccc[nH]c2=O)c2oc(=O)ccc2c1 = 5.82

Task item: Which measured pIC50 value corresponds to `CC(C)(C)c1cc(-c2ccc[nH]c2=O)c2[nH]c(=O)c(-c3ccc(S(N)(=O)=O)cc3)cc2c1` ?
Reply: 7.34

Task item: Another: `CC(C)(C)c1cc(-c2ccc[nH]c2=O)c2oc(=O)c(-c3ccc(N)cc3)cc2c1`
Reply: 7.47

Task item: Same thing, different molecule: `CC(C)(C)c1cc(-c2ccc[nH]c2=O)c2[nH]c(=O)c(-c3cccc(NS(C)(=O)=O)c3)cc2c1`
Reply: 6.27

Task item: Another molecule: `Cn1c(=O)c(-c2ccc(S(N)(=O)=O)cc2)cc2cc(C(C)(C)C)cc(-c3ccc[nH]c3=O)c21`
Reply: 5.63

Task item: Subsequent entry: `CC(C)(C)c1cc(-c2ccc[nH]c2=O)c2c(=O)oc(-c3ccc(NS(C)(=O)=O)cc3)cc2c1`
Reply: 8.10

Task item: Would you mind doing `CC(C)(C)c1cc(-c2ccc[nH]c2=O)c2[nH]c(=O)ccc2c1` as well?
Reply: 6.48

Task item: // same read-out, input: `CC(C)(C)c1cc(-c2ccc[nH]c2=O)c2c(=O)[nH]c(-c3ccc(NS(C)(=O)=O)cc3)cc2c1`
Reply: 7.80
